Parameter: self-aminoacylation. Scope: all listed entries.
Tested on: biotinyl-Phe-oxazolone
Assay: self-aminoacylation, catalytic enhancement (BFO) (fold over background); higher = more active; k-Seq, kA / k0A0; sequences stand for … in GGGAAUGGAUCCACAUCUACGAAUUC…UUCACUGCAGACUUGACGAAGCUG
Variants at the floor of the assay were thinned out.
observed-property: self-aminoacylation

INSERT INTO assay_data (sequence_data, result_number) VALUES
  ('AUUCGCCUAGGGCAUCGGGUG [Fam2.2 aminoacylation ribozyme variant]', 26.1),
  ('UUUACCCUGGUUAUCGAGUGA [Fam2.1 aminoacylation ribozyme variant]', 25.7),
  ('CUACUUCAAACUAUCGAUCUG [Fam1A.1 aminoacylation ribozyme variant]', 0.945),
  ('AUUUACCUACGUCAUCGGGUG [Fam2.2 aminoacylation ribozyme variant]', 32.2),
  ('GUUCACCUAGGUCAUCGGGCG [Fam2.2 aminoacylation ribozyme variant]', 4.6),
  ('CCACCCUUCAACCAAUCGGUC [Fam1B.1 aminoacylation ribozyme variant]', 46),
  ('AUUCAGCUAGGUCAUCCGGUG [Fam2.2 aminoacylation ribozyme variant]', 44.2),
  ('CCACAAUUCGAGCAAUCGGUC [Fam1B.1 aminoacylation ribozyme variant]', 0.736),
  ('CUAGUUCAAAUAAUCGGUCUG [Fam1A.1 aminoacylation ribozyme variant]', 3.78),
  ('CCACACUUCAAGCAAUCCGUA [Fam1B.1 aminoacylation ribozyme variant]', 0.597),
  ('ACGGUUGCUAAUAGUCGCAAG [Fam3.1 aminoacylation ribozyme variant]', 2.51),
  ('CCACUCGUCAAGCAAUCGGUC [Fam1B.1 aminoacylation ribozyme variant]', 0.586),
  ('AAUACCCGGGUCAUCGAGUGA [Fam2.1 aminoacylation ribozyme variant]', 34.7),
  ('CUACUCCAAACAAACGGUCUG [Fam1A.1 aminoacylation ribozyme variant]', 1.09),
  ('AUUCCCCUGGUCUUCGAGUGA [Fam2.1 aminoacylation ribozyme variant]', 64.6),
  ('GUAAUUCAAACAAUCGGUCUG [Fam1A.1 aminoacylation ribozyme variant]', 2.5),
  ('CUUCACCUAGGUCAUGGGGUG [Fam2.2 aminoacylation ribozyme variant]', 11.6),
  ('GUUGCCCUGGUCAUCGAGUGA [Fam2.1 aminoacylation ribozyme variant]', 382),
  ('CCACACUACAAGCAAUCGGUG [Fam1B.1 aminoacylation ribozyme variant]', 31.8),
  ('AUACGUCAAACAAUCGGUCUG [Fam1A.1 aminoacylation ribozyme variant]', 5.56),
  ('AAUUUUGCUAAGAGUCGCAAG [Fam3.1 aminoacylation ribozyme variant]', 2.23),
  ('CCACACUGUAAGCAAUCGGUC [Fam1B.1 aminoacylation ribozyme variant]', 0.898),
  ('AAGUUUCCUAAUAGUAGCAAG [Fam3.1 aminoacylation ribozyme variant]', 1.11),
  ('CCUCACUUUAAGCAAUCGGUC [Fam1B.1 aminoacylation ribozyme variant]', 1.2),
  ('AAAUUUCCUAAUAGUCGCAAG [Fam3.1 aminoacylation ribozyme variant]', 1.2),
  ('AAGAUUGCUAAUAGUCGCAAG [Fam3.1 aminoacylation ribozyme variant]', 4.83),
  ('CUACACUUCAAGCAAUCGGUA [Fam1B.1 aminoacylation ribozyme variant]', 1.37),
  ('AACUUUGCUAAUAGUCCCAAG [Fam3.1 aminoacylation ribozyme variant]', 3.69),
  ('CCCCACUUCAAGUAAUCGGUC [Fam1B.1 aminoacylation ribozyme variant]', 15.4),
  ('AAGUUUGAUAAUAGACGCAAG [Fam3.1 aminoacylation ribozyme variant]', 0.787),
  ('CCAUACUGCAAGCAAUCGGUC [Fam1B.1 aminoacylation ribozyme variant]', 1.06),
  ('GCACACUUCAAGCAAUCGGUU [Fam1B.1 aminoacylation ribozyme variant]', 4.75),
  ('CCACACUUCAAGCAAUAGUUC [Fam1B.1 aminoacylation ribozyme variant]', 1.21),
  ('CCACACUUCAAGUAAUCGGGC [Fam1B.1 aminoacylation ribozyme variant]', 1.28),
  ('AUUACACUGGUCAUCGAGUCA [Fam2.1 aminoacylation ribozyme variant]', 0.583);
